Hello, the source for this data is paper PMC6150173, in case you need it.

Test system: erythrocyte suspensions of human blood
Assay: Hemolytic activity, hemoglobin release
Type: cell-based
Conditions: peptide 50 μM (table prints 50 µM); human blood erythrocytes 5% v/v; absorbance 540 nm; percentage compared to melittin; three replicates
Peptide text beside a SMILES is read from it.
Below, each entry is listed alongside its reported Hemolysis (%) at 50 µM.
Kindly answer with a numeric value in %, unit omitted.

Sample records with Hemolysis (%) at 50 µM:
- compound: "CC(C)C[C@@H]1NC(=O)[C@H](CCCCN)NC(=O)[C@H](CC(C)C)NC(=O)[C@H](CCC(N)=O)NC(=O)[C@H](CCCCN)NC(=O)[C@H](CCCCN)NC(=O)[C@H](CC(C)C)NC(=O)[C@H](Cc2c[nH]c3ccccc23)NC(=O)[C@H](CCCCN)NC(=O)[C@H](CCCCN)NC1=O [BPC144W, c(LKLKKWLKKQ)] (cyclo(KKQLKLKKWL))"
  quantity.measured: "Hemolysis (%) at 50 µM"
  unit.tag: "%"
  result: 16
- compound: "CC(C)C[C@@H]1NC(=O)[C@H](CCC(N)=O)NC(=O)[C@H](CCCCN)NC(=O)[C@H](CC(C)C)NC(=O)[C@H](CCCCN)NC(=O)[C@H](Cc2c[nH]c3ccccc23)NC(=O)[C@H](CCCCN)NC(=O)[C@H](CC(C)C)NC(=O)[C@H](CCCCN)NC(=O)[C@H](CCCCN)NC1=O [BPC120W, c(LKKLKWKLKQ)] (cyclo(KKLKWKLKQL))"
  quantity.measured: "Hemolysis (%) at 50 µM"
  unit.tag: "%"
  result: 6

The record that follows has no Hemolysis (%) at 50 µM shown yet.
Input: For CC(C)C[C@@H]1NC(=O)[C@H](CCC(N)=O)NC(=O)[C@H](CCCCN)NC(=O)[C@H](CC(C)C)NC(=O)[C@H](CCCCN)NC(=O)[C@H](Cc2c[nH]c3ccccc23)NC(=O)[C@H](CC(C)C)NC(=O)[C@H](CCCCN)NC(=O)[C@H](CCCCN)NC(=O)[C@H](CCCCN)NC1=O [BPC116W, c(LKKKLWKLKQ)] (cyclo(KKKLWKLKQL)) , what is its reported Hemolysis (%) at 50 µM?
Output: 9

* * *

// reported Hemolysis (%) at 50 µM for each item listed
Test system: erythrocyte suspensions of human blood
Experiment: Hemolytic activity, hemoglobin release
Assay type: cell-based
Conditions: peptide 50 μM (table prints 50 µM); human blood erythrocytes 5% v/v; absorbance 540 nm; percentage compared to melittin; three replicates
Procedure: The hemolytic activity of the compounds was evaluated at 50 and 125 μM by determining hemoglobin release from erythrocyte suspensions of human blood (5% v/v) (Oxoid) using absorbance at 540 nm, as previously described. Three replicates for each peptide concentration were used.
Peptide text beside a SMILES is read from it.
Form entry: value (%) — number only.

Solved cases (2 shown):
- compound: "CC(C)C[C@@H]1NC(=O)[C@H](CCCCN)NC(=O)[C@H](CCC(N)=O)NC(=O)[C@H](CC(C)C)NC(=O)[C@H](CC(C)C)NC(=O)[C@H](CCCCN)NC(=O)[C@H](Cc2c[nH]c3ccccc23)NC(=O)[C@H](CCCCN)NC(=O)[C@H](CCCCN)NC(=O)[C@H](CCCCN)NC1=O [BPC066W, c(KLKKKWKLLQ)] (cyclo(KKKWKLLQKL))"
  Hemolysis (%) at 50 µM: 33
- compound: "CC(C)C[C@@H]1NC(=O)[C@H](CCCCN)NC(=O)[C@H](CC(C)C)NC(=O)[C@H](CC(C)C)NC(=O)[C@H](CCC(N)=O)NC(=O)[C@H](CC(C)C)NC(=O)[C@H](CCCCN)NC(=O)[C@H](CCCCN)NC(=O)[C@H](Cc2c[nH]c3ccccc23)NC(=O)[C@H](CCCCN)NC1=O [BPC196W, c(LLKLKWKKLQ)] (cyclo(KKLQLLKLKW))"
  Hemolysis (%) at 50 µM: 2

Now consider a different compound.
Input: Sample CC(C)C[C@@H]1NC(=O)[C@H](CCCCN)NC(=O)[C@H](CCCCN)NC(=O)[C@H](Cc2c[nH]c3ccccc23)NC(=O)[C@H](CCCCN)NC(=O)[C@H](CCCCN)NC(=O)[C@H](CCCCN)NC(=O)[C@H](CC(C)C)NC(=O)[C@H](CCCCN)NC(=O)[C@H](CCC(N)=O)NC1=O [BPC198W, c(KLKKKWKKLQ)] (cyclo(KKKWKKLQKL)) — what was its Hemolysis (%) at 50 µM?
Output: 2
